# System: CP211
# ASSAY COMMENT: qHTS profiling for inhibitors of Plasmodium falciparum proliferation (AID 504749); further: nearly all actives have a fitted effect of over 60% in size
# MEASUREMENT SETUP: P. falciparum in erythrocytes, SYBR Green DNA, 72 h; series mostly up to 28.7 µM
# Method: NIH National Institute of Allergy and Infectious Diseases [NIAID] NIH Chemical Genomics Center [NCGC] […] Because mature erythrocytes lack DNA, only Plasmodium-derived DNA is detected. NCGC Assay Protocol Summary: The SYBR Green viability assay was adapted from a method described previously (Plouffe et al., 2008). […] The following morning, fluorescence intensity at 485(14) nm excitation and 535(25) nm emission wavelengths was measured on an EnVision (Perkin Elmer) plate reader. […]
Results filed as inconclusive are left out. Calls of active or inactive are those of the source. The call rests on the fitted dose curve; in most records, active means well fitted inhibition curve with a large enough effect; inconclusive means small, poorly fitted or top-dose-only effect; inactive means flat fitted curve, though single readings scatter.
MEASURE: outcome

Illustrative cases are given below, each with its answer.
[
  {
    "MOLECULE": "CC1=CCC2CC1C2(C)C (stereo unspecified)",
    "MEASURE": "outcome",
    "MEASURED VALUE": "inactive"
  },
  {
    "MOLECULE": "FC(F)OC(Cl)C(F)(F)F (stereo unspecified)",
    "MEASURE": "outcome",
    "MEASURED VALUE": "inactive"
  },
  {
    "MOLECULE": "Cn1c(O)c(N=NC(N)=S)c2ccccc21",
    "MEASURE": "outcome",
    "MEASURED VALUE": "inactive"
  },
  {
    "MOLECULE": "CCc1ncnc2cc(OC)c(OC)cc12",
    "MEASURE": "outcome",
    "MEASURED VALUE": "inactive"
  },
  {
    "MOLECULE": "CC(=O)Nc1c(I)c(C(=O)O)c(I)c(N(C)C(C)=O)c1I",
    "MEASURE": "outcome",
    "MEASURED VALUE": "inactive"
  }
]

# context switch: different molecule, same outcome
What outcome value was documented for this molecule, `NCC[C@H](O)C(=O)N[C@@H]1C[C@H](N)[C@@H](O[C@H]2O[C@H](CN)[C@@H](O)[C@H](O)[C@H]2O)[C@H](O)[C@H]1O[C@H]1O[C@H](CO)[C@@H](O)[C@H](N)[C@H]1O` ?
inactive

* * *

# Tested on: CP256
# ASSAY COMMENT: qHTS profiling for inhibitors of Plasmodium falciparum proliferation (AID 504749); further: nearly all actives have a fitted effect of over 60% in size
# MEASUREMENT SETUP: P. falciparum in erythrocytes, SYBR Green DNA, 72 h; series mostly up to 28.7 µM
Records with an inconclusive call do not appear. The source made the active and inactive calls. The call rests on the fitted dose curve; in most records, active means well fitted inhibition curve with a large enough effect; inconclusive means small, poorly fitted or top-dose-only effect; inactive means flat fitted curve, though single readings scatter.
// classify into 1.0 (active), 0.0 (inactive)

[
  {
    "COMPOUND": "CC1C(=O)CC2C3(C)CCC2(C(C)C(=O)O)C(=O)C13 (centres undefined)",
    "SYSTEM NAME": "CP256",
    "QUALITATIVE LABEL": 0.0
  },
  {
    "COMPOUND": "OCl",
    "SYSTEM NAME": "CP256",
    "QUALITATIVE LABEL": 0.0
  },
  {
    "COMPOUND": "CCOC(=O)c1cc(-c2ccccc2)nc2ccc(C)cc12",
    "SYSTEM NAME": "CP256",
    "QUALITATIVE LABEL": 0.0
  },
  {
    "COMPOUND": "ClC(Cl)Cl",
    "SYSTEM NAME": "CP256",
    "QUALITATIVE LABEL": 0.0
  },
  {
    "COMPOUND": "S=C1SCN(Cc2ccccc2)CN1Cc1ccccc1",
    "SYSTEM NAME": "CP256",
    "QUALITATIVE LABEL": 0.0
  }
]

Could you please tell me the result logged for `OCC(O)CO` in this assay?
0.0

* * *

# Test system: TAB165
# ASSAY COMMENT: qHTS profiling for inhibitors of Plasmodium falciparum proliferation (AID 504749); further: nearly all actives have a fitted effect of over 60% in size
# MEASUREMENT SETUP: P. falciparum in erythrocytes, SYBR Green DNA, 72 h; series mostly up to 28.7 µM
Records with an inconclusive call do not appear. Activity calls are given as the source filed them. The call rests on the fitted dose curve; in most records, active means well fitted inhibition curve with a large enough effect; inconclusive means small, poorly fitted or top-dose-only effect; inactive means flat fitted curve, though single readings scatter.
// classify into active, inactive

[
  {
    "COMPOUND": "O=C(NNCS(=O)(=O)O)c1ccncc1",
    "QUALITATIVE LABEL": "inactive"
  },
  {
    "COMPOUND": "C[Si](C)(C)O[Si](C)(C)C",
    "QUALITATIVE LABEL": "inactive"
  },
  {
    "COMPOUND": "CC/C=C\\C/C=C\\C/C=C\\C/C=C\\C/C=C\\CCCC(=O)O",
    "QUALITATIVE LABEL": "inactive"
  },
  {
    "COMPOUND": "CN(C)CCOc1ccc(/C(=C(/CCCl)c2ccccc2)c2ccccc2)cc1",
    "QUALITATIVE LABEL": "inactive"
  }
]

Could you please tell me the result logged for `CC(=O)Nc1ccc(OC(C)=O)cc1` in this assay?
inactive

Could you please tell me the result logged for `COc1ccccc1N1CCN(CCCC(=O)c2ccc(F)cc2)CC1` in this assay?
inactive

Could you please tell me the result logged for `O=C(O)CCC(=O)c1ccc(-c2ccccc2)cc1` in this assay?
inactive

Could you please tell me the result logged for `Cc1cc(C)c(NC(=O)C[C@H](CC(=O)O)c2cccc3ccccc23)c(C(=O)N2CCC3(CCCC3)CC2)c1` in this assay?
inactive

Could you please tell me the result logged for `CCOC(=O)c1cc(-c2ccccc2)nc2ccc(C)cc12` in this assay?
inactive

Could you please tell me the result logged for `CC[C@H]1OC(=O)[C@H](C)[C@@H](O[C@H]2C[C@@](C)(OC)[C@@H](O)[C@H](C)O2)[C@H](C)[C@@H](O[C@@H]2O[C@H](C)C[C@H](N(C)C)[C@H]2O)[C@](C)(O)C[C@@H](C)CN(C)[C@H](C)[C@@H](O)[C@]1(C)O` in this assay?
active

* * *

# System: CP215
# ASSAY COMMENT: qHTS profiling for inhibitors of Plasmodium falciparum proliferation (AID 504749); further: nearly all actives have a fitted effect of over 60% in size
# MEASUREMENT SETUP: P. falciparum in erythrocytes, SYBR Green DNA, 72 h; series mostly up to 28.7 µM
Inconclusive results are not listed. Active and inactive are the calls of the source. Calls follow the shape of the dose curve; as a rule, active = well fitted inhibition curve with a large enough effect; inconclusive = small, poorly fitted or top-dose-only effect; inactive = flat fitted curve, though single readings scatter.
// classify into class 1 = active, class 0 = inactive

Known results for compounds:
[
  {
    "COMPOUND": "CC(C)=CCC/C(C)=C/CC/C(C)=C/CC/C=C(\\C)CC/C=C(\\C)CCC=C(C)C",
    "QUALITATIVE LABEL": "class 0"
  },
  {
    "COMPOUND": "CC1=CC(=C(c2ccc(N)cc2)c2ccc(N)cc2)C=CC1=N",
    "QUALITATIVE LABEL": "class 1"
  },
  {
    "COMPOUND": "O=C1c2ccccc2C(=O)c2c1ccc(O)c2O",
    "QUALITATIVE LABEL": "class 0"
  }
]

Let us examine a further case.
Could you please tell me the result logged for `O=C1c2ccccc2C(=O)C1c1ccc(F)cc1` in this assay?
class 0

* * *

# System: OV90
# ASSAY COMMENT: Primary qHTS to identify gynecologic anti-cancer compounds using libraries of approved drugs and bioactive compounds (AID 1345084); further: nearly all actives have a fitted effect of over 55% in size; further: potency means the concentration at half of the fitted maximal effect
# MEASUREMENT SETUP: Gynecologic cancer cell panel viability, ATPlite luminescence, 48 h; series mostly up to 57.5 µM
Inconclusive results are not listed. The source made the active and inactive calls. Calls come from the whole dose curve; as a rule, active = well fitted cell-killing curve with a large enough effect; inconclusive = small, poorly fitted or top-dose-only effect, or effect the other way; inactive = flat fitted curve, though single readings scatter.

[
  {
    "COMPOUND": "N[C@@H](Cc1cc(I)c(Oc2ccc(O)c(I)c2)c(I)c1)C(=O)O",
    "SYSTEM NAME": "OV90",
    "Potency": "inactive"
  },
  {
    "COMPOUND": "C[C@H]1O[C@@H](O[C@H]2[C@@H](O)C[C@H](O[C@H]3[C@@H](O)C[C@H](O[C@H]4CC[C@@]5(C)[C@H](CC[C@@H]6[C@@H]5C[C@@H](O)[C@]5(C)[C@@H](C7=CC(=O)OC7)CC[C@]65O)C4)O[C@@H]3C)O[C@@H]2C)C[C@H](O)[C@@H]1O",
    "SYSTEM NAME": "OV90",
    "Potency": "631 nM (active)"
  },
  {
    "COMPOUND": "C[C@]12CC[C@@H]3c4ccc(OC(=O)c5ccccc5)cc4CC[C@H]3[C@@H]1CC[C@@H]2O",
    "SYSTEM NAME": "OV90",
    "Potency": "inactive"
  },
  {
    "COMPOUND": "O=C(OCc1ccccc1)c1ccc(O)cc1",
    "SYSTEM NAME": "OV90",
    "Potency": "inactive"
  }
]
